experiment: recombinant barcode read abundance after kanamycin selection (control-corrected) (log10(CPM+1)); higher = more efficient recombination; sequences stand for … in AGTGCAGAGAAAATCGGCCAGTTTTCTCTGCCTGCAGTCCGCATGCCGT…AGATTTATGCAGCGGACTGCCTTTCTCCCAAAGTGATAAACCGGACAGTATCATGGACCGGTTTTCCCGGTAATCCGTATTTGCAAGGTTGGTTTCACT; site = the 11-nt target;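 further: IS621 recombinase and bridge RNA in Escherichia coli cells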
Label scheme for recombinant barcode read abundance (log10): low: < 0.09; medium: ≥ 0.09 and < 0.3; high: ≥ 0.3

INSERT INTO assay_data (sequence_code, discrete_label) VALUES
  ('GGGCACTCTTGGGTTCTAACCTGTTGCCT (site GGGCACTCTAC)', 'low'),
  ('CTTTGTGCTTGGGTTCTAACCTGTTGCCT (site CTTTGTGCTAG)', 'medium'),
  ('CTATTCTCTTGGGTTCTAACCTGTTGCCT (site CTATTCTCTAG)', 'high'),
  ('GTGTATTCTTGGGTTCTAACCTGTTGCCT (site GTGTATTCTAG)', 'high'),
  ('CAGAGGCCTTGGGTTCTAACCTGTTGCCT (site CAGGGGCCTAG)', 'medium'),
  ('GAGGCAACTTGGGTTCTAACCTGTTGCTT (site CACGCAACTAA)', 'low'),
  ('TGTAATCCTTGGGTTCTAACCTGTTGCCT (site TGTAATTCTAG)', 'low'),
  ('AGCTCCTCTTGGGTTCTAACCTGTTGCCT (site CGCTCCTCTAG)', 'medium'),
  ('GTGTGTACTTGGGTTCTAACCTGTTGCCT (site GTGTGTCCTAG)', 'medium'),
  ('GAGCTTACTTGGGTTCTAACCTGTTGCCT (site GCGCTTACTAG)', 'low'),
  ('GTATACCCTTGGGTTCTAACCTGTTGCCA (site GTATACCCTTG)', 'high'),
  ('CCAAGATCTTGGGTTCTAACCTGTTGCCT (site CCAAGATCTAG)', 'high'),
  ('TAGGCATCTTGGGTTCTAACCTGTTGCTC (site TAGACATCTGA)', 'medium'),
  ('GCGAATCCTTGGGTTCTAACCTGTTGCCT (site GCGGATCCTAG)', 'low'),
  ('AACGTACCTTGGGTTCTAACCTGTTGCCA (site GGTAATACTAT)', 'low'),
  ('GTGAGGACTTGGGTTCTAACCTGTTGCTG (site GTGAGGACTCA)', 'high'),
  ('TTGAGGACTTGGGTTCTAACCTGTTGCCT (site TTGAGGACTAG)', 'high'),
  ('CTAGGAGCTTGGGTTCTAACCTGTTGCCT (site CTAGGACCTTG)', 'low'),
  ('GGGCACTCTTGGGTTCTAACCTGTTGCTT (site GGGCACTCTAC)', 'high'),
  ('ATGCCCACTTGGGTTCTAACCTGTTGCCT (site ATGCCTACTAG)', 'medium'),
  ('GGACGACCTTGGGTTCTAACCTGTTGCCT (site GGACGCCCTAG)', 'medium'),
  ('CACTTGCCTTGGGTTCTAACCTGTTGCCT (site CACTTGGCTAG)', 'low'),
  ('AGCTTATCTTGGGTTCTAACCTGTTGCCT (site AGCTAAACTAG)', 'medium'),
  ('TATTCTCCTTGGGTTCTAACCTGTTGCCT (site TATTCTCCTAC)', 'low'),
  ('TGGACCTCTTGGGTTCTAACCTGTTGCCA (site CTACGAACTCC)', 'high'),
  ('TCACACTCTTGGGTTCTAACCTGTTGCCT (site TCGCACTCTAG)', 'medium'),
  ('CTAAGGTCTTGGGTTCTAACCTGTTGCTT (site CTAAGGTCTAC)', 'medium'),
  ('TCGATTACTTGGGTTCTAACCTGTTGCCT (site TCGATCACTAG)', 'medium'),
  ('CCGTGAACTTGGGTTCTAACCTGTTGCCT (site CCGTGAACTAG)', 'medium'),
  ('GTCATACCTTGGGTTCTAACCTGTTGCCT (site GTCCTACCTAG)', 'low'),
  ('CATAACGCTTGGGTTCTAACCTGTTGCCT (site CATAACGCTAG)', 'high'),
  ('ACGTTGCCTTGGGTTCTAACCTGTTGCCT (site ACCTTGCCTAG)', 'low'),
  ('TGTGTCTCTTGGGTTCTAACCTGTTGCGT (site TCTGTCTCTAG)', 'high'),
  ('CTGCCCTCTTGGGTTCTAACCTGTTGCCT (site CTGCCCTCTAG)', 'high'),
  ('CATTAGCCTTGGGTTCTAACCTGTTGCCT (site CATCAGCCTAG)', 'medium'),
  ('GAGACAGCTTGGGTTCTAACCTGTTGCCT (site GATACAGCTAG)', 'high'),
  ('AGGGACCCTTGGGTTCTAACCTGTTGCCT (site AGGGACCCTAG)', 'high'),
  ('CTGATAACTTGGGTTCTAACCTGTTGCCT (site CTGATTACTAG)', 'medium');
